Values compiled from PubChem BioAssay (NCI).

Kindly state growth for each of the entries shown.
# Tested on: M14 melanoma
# Experimental Protocol: NCI-60 one-dose screen, 48 h (100 = growth as untreated, 0 = no growth, -100 = all killed)
# Study Conditions: 10 µM unless noted
About 83,000 compounds went through this panel and 20% of them were active in at least one assay; those are over-represented in the sample as a whole.
Answers are plain numbers, in %.

Example entries begin here.
{"Molecule": "Clc1ccccc1Nc1nnc(-c2ccncc2)s1", "Number": 104}
{"Molecule": "O=C(Cc1ccc(Nc2ccnc(C(F)(F)F)c2)cc1)N/N=C/c1ccccc1O", "Number": 8.64}
{"Molecule": "Cc1cc(C)cc(Nc2cc(C)nc3nc(C(F)(F)F)nn23)c1", "Number": 24}
{"Molecule": "OC(c1cc(-c2ccc(C(F)(F)F)cc2)nc(-c2ccc(C(F)(F)F)cc2)c1)C1CCCCN1 (stereo not given)", "Number": -80.1}
{"Molecule": "CCCc1n(Cc2ccc3ccccc3c2)c2ccccc2[n+]1Cc1ccc2ccccc2c1", "Number": -72}

Dear colleague, could you send me growth for each of the items below? Thanks.
1. CCc1ccc(Nc2ncnc3c2cnn3-c2cccc(Br)c2)cc1
2. CCCCCCCCCCCCCCC(C(=O)OCC)C(=O)OCC
3. Cc1ccc(NC(=O)Cn2nncc2CN2C(=O)CSC2=O)cc1C

Result ::
[98.6, 108, 105]

Dear colleague, could you send me growth for each of the items below? Thanks.
1. C=CCn1c(SCC(=O)Nc2ccc(/C(C)=N\O)cc2)nnc1-c1cc(-c2ccc(Cl)cc2)nc2ccccc12
2. COc1ccc2[nH]cc(C(c3ccc(Cl)cc3)N3CCCC3)c2c1 (stereo not given)

Result ::
1. 20.4
2. 95

====

# Tested on: IGROV1 ovarian
# Experimental Protocol: NCI-60 one-dose screen, 48 h
# Study Conditions: 10 µM unless noted
The panel holds about 83,000 compounds, 20% with a hit somewhere; the sample as a whole holds those more often. Calls of active or inactive are those of the source. Rule for the calls: active = growth percent below 10; inactive = the rest.
Respond using exactly one of the listed classes: active, inactive

{"Molecule": "Cc1ccc(NC(=O)c2nc(S(C)(=O)=O)oc2-c2ccc(F)cc2)cc1Nc1ccc2ncn(C)c(=O)c2c1", "Target Entity": "IGROV1 ovarian", "Class Name": "inactive"}
{"Molecule": "N=C(N)c1ccc(-c2ccc(-c3cc(Cl)cc(Cl)c3)o2)nc1", "Target Entity": "IGROV1 ovarian", "Class Name": "active"}
{"Molecule": "Oc1ccc(CCCCCCc2ccc(O)cc2)cc1", "Target Entity": "IGROV1 ovarian", "Class Name": "inactive"}
{"Molecule": "Cc1cccc(C(=O)O)n1", "Target Entity": "IGROV1 ovarian", "Class Name": "inactive"}

Query :: Test call for this molecule, please: `O=C1C(Cl)=C(N/N=c2/[nH][nH]/c(=N/NC3=C(Cl)C(=O)c4ccccc4C3=O)c3ccccc23)C(=O)c2ccccc21`
Result :: inactive

Query :: Test call for this molecule, please: `Cc1c(C)c(C)c([N+](=O)[O-])c([N+](=O)[O-])c1C`
Result :: inactive

Query :: Test call for this molecule, please: COc1ccc(C2C3=C(COC3=O)N(CCO)c3cc(OC)c(OC)cc32)cc1 (stereo unspecified)
Result :: inactive

Query :: Test call for this molecule, please: Fc1[nH]nc2ccc([C@@H]3Nc4ccc5[nH]ncc5c4[C@H]4C5CCC(C5)[C@@H]34)cc12 (stereo partly specified)
Result :: inactive

Query :: Test call for this molecule, please: `O=C(N=Nc1c(Cl)c(O)c2ccccc2c1O)C(=O)Nc1cccc(C(F)(F)F)c1`
Result :: inactive

Query :: Test call for this molecule, please: `Nc1nc(N)c2cc(CNc3ccc(Cl)c(Cl)c3)ccc2n1`
Result :: inactive
